Biological target: RELA (p65) subunit of heterodimer;p52 subunit (Homo sapiens;Homo sapiens, UniProt Q04206;Q00653 1-307;4-332)
Experiment: protein binding microarray; high values mean tight binding
Details: dsDNA, one strand shown
Please provide measured binding signal for the entries that follow.

Study these solved cases before continuing.
>  <sequence.input>
AGGTAAACCCC

>  <binding signal>
1.68 z-score

$$$$
>  <sequence.input>
AAAGATGTCCC

>  <binding signal>
0.185 z-score

$$$$
>  <sequence.input>
GAGAGTATCCC

>  <binding signal>
-0.673 z-score

$$$$
>  <sequence.input>
AAGGATATCCT

>  <binding signal>
-0.906 z-score

$$$$
>  <sequence.input>
AGATTGGTCCT

>  <binding signal>
-0.788 z-score

$$$$
>  <sequence.input>
AAGGGCACCCC

>  <binding signal>
-0.414 z-score

$$$$
>  <sequence.input>
AAAAACATCCT

>  <binding signal>
-0.82 z-score

$$$$
>  <sequence.input>
AAGATGCCCCC

>  <binding signal>
0.788 z-score

$$$$
>  <sequence.input>
AGAAGATTCCT

>  <binding signal>
-0.681 z-score

$$$$
>  <sequence.input>
GGGGTCGCCCC

>  <binding signal>
2.18 z-score

$$$$

Could you tell me binding signal for each of these sequences? They are listed below.
1. GGGTGGCCCCC
2. GGAGGACCCCT
3. AGGATACCCCC
4. GGAGTCACCCT
5. GGATACTTCCT
6. CAAATAATCCT
7. AGGGGAGTCCT

Output line:
0.996 z-score
0.173 z-score
1.29 z-score
-0.5 z-score
-0.831 z-score
-0.746 z-score
1.1 z-score

---

Target: C-Rel subunit;p52 subunit (Homo sapiens;Homo sapiens, UniProt Q04864;Q00653 1-285;4-332)
Sequence 1: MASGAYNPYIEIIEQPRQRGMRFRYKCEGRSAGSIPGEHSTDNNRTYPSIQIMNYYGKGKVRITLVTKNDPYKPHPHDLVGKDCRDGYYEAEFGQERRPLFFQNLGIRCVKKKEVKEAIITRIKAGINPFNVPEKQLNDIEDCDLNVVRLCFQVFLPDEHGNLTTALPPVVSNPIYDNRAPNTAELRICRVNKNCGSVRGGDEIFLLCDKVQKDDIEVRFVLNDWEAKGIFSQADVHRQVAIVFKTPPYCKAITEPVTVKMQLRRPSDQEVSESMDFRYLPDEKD
Sequence 2: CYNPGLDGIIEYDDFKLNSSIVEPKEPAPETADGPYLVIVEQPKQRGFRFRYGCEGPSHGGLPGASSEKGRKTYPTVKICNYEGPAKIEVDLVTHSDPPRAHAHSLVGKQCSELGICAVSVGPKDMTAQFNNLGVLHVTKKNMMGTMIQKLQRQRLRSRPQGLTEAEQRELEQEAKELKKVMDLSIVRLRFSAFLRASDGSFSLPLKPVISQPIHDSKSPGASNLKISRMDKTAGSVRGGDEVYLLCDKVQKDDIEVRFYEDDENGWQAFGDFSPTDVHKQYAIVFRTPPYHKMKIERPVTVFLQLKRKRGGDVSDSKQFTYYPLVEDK
Test: protein binding microarray; high values mean tight binding
Conditions: dsDNA, one strand shown
Assign labels as follows, please: Yes for binding signal below 0.5 z-score; No for binding signal equal to or exceeding 0.5 z-score.

Illustrative cases are given below, each with its answer.
>  <sequence.input>
GAAGATACCCT

>  <class>
Yes

$$$$
>  <sequence.input>
AGGTATTTCCC

>  <class>
No

$$$$
>  <sequence.input>
AAATATCTCCC

>  <class>
Yes

$$$$

Input line: API: query returns whether the sequence falls strictly under 0.5 z-score in binding signal. Query: GGAGGGTCCCT
Output line: No
